Give IL-2 production, SEB-dependent PBMC stimulation test, 0.0032 ug/ml, N = 1 for every item shown.
Biological target: T1, human LAG-3 on cells (HEK293-hLAG-3 stable cell line) (human, UniProt P18627 23-525)
T1 sequence: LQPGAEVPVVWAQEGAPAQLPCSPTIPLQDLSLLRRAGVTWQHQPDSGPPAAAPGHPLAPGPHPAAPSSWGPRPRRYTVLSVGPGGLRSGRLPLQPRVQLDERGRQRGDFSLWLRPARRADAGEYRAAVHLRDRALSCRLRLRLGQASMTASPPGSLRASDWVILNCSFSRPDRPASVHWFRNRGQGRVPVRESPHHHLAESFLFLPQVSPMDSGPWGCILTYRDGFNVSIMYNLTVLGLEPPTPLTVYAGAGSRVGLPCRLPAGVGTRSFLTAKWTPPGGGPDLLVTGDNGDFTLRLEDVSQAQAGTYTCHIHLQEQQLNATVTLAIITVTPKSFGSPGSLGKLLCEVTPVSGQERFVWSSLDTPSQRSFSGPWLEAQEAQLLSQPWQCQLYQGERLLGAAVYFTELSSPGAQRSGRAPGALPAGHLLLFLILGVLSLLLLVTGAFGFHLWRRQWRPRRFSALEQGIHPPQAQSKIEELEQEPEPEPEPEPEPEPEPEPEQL
Test: cell-based or functional assay

409B11E12 mouse-human chimeric antibody (antibody, V domains shown, also called mAb104-409B11E12) VH: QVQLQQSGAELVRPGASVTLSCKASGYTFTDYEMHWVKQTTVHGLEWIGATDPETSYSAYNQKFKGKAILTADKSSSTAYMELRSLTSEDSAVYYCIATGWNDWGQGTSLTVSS VL: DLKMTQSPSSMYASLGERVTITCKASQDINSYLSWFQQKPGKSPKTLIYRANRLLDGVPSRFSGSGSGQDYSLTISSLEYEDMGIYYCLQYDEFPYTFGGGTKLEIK | 1340 pg/mL

Kindly indicate its recorded IL-2 production, SEB-dependent PBMC stimulation test, 0.0032 ug/ml, N = 1. Item: 105F1E10 mouse-human chimeric antibody (antibody, V domains shown, also called mAb009-105F1E10) VH: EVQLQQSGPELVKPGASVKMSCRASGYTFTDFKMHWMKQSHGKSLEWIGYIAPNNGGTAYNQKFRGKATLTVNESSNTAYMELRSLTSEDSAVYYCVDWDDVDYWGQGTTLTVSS VL: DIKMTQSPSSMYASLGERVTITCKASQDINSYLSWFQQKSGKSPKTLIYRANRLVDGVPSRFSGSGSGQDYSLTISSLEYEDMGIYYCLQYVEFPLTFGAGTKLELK
2340 pg/mL

Where do these numbers come from? They come from patent US20210155689A1.
